test: Plasma concentration after 4 hr at a dose of 10 mg/kg when administered intravenously; conditions: iv

smiles_notation	concentration at 4 h / ng/mL
N[C@](CC1c2ccccc2Oc2ccccc21)(C(=O)O)[C@H]1C[C@@H]1C(=O)O	35.9

----------
experiment: Maximum concentration achieved in rat brain when administered intravenously at a dose of 10 mg/kg; type: ADME, organism-based; design: dose 10 mg/kg, route intravenous; conditions: iv
recorded_metric: Cmax (ng/g)

smiles_notation	display_unit	endpoint_result
N[C@](CC1c2ccccc2Oc2ccccc21)(C(=O)O)[C@H]1C[C@@H]1C(=O)O	ng/g	243

----------
assay: Bioavailability in rat (dose 10 mg/kg p.o.); format: ADME, organism-based; details: in vivo, po
recorded_metric: bioavailability (%)

smiles_notation	endpoint_result
N[C@](CC1c2ccccc2Oc2ccccc21)(C(=O)O)[C@H]1C[C@@H]1C(=O)O	3.4

Data origin, for the record: ChEMBL document CHEMBL1131460
